- assayed_system: Enoyl-[acyl-carrier-protein] reductase [NADPH] FabI (Staphylococcus aureus) (UniProt Q6GI75)
- Sequence (Q6GI75 whole entry): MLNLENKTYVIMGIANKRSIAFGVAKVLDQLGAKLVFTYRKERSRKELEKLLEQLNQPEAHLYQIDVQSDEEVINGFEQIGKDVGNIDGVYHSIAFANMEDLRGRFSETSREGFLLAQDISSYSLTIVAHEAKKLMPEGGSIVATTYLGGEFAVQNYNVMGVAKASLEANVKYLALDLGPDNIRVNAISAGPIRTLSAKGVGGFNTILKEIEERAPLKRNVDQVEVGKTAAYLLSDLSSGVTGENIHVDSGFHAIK
- test_details: Inhibition of N-terminal his 6 tagged Staphylococcus aureus Fabi (1 to […] residues) expressed in Escherichia coli BL21 at 10 uM incubated for 30 mins in presence of NADPH by fluorescence based microplate reader analysis relative to control
property_label: inhibition (%)
Express the result in % but write the number alone.

Cc1cccc(NC(=O)CCNC(=O)CCc2nc3ccccc3n2C)c1C; 33.2
Cc1c(Br)cccc1N1CC(c2nc3ccccc3n2C)CC1=O (stereo unspecified); 98.7
CC(=O)c1ccc(N2CC(c3nc4ccccc4n3C)CC2=O)cc1 (stereo unspecified); 10.1

Recorded inhibition of Cn1c(C2CC(=O)N(c3cccc(Cl)c3Cl)C2)nc2ccccc21 (stereo unspecified) , please.
98.8

Recorded inhibition of Cn1c(C(=O)NCc2ccccc2)nc2ccccc21 , please.
4.7

Recorded inhibition of Cn1c(C2CC(=O)N(c3ccc4ccccc4c3)C2)nc2ccccc21 (stereo unspecified) , please.
51.7

Recorded inhibition of Cn1c(C2CC(=O)N(c3cccc(Br)c3O)C2)nc2ccccc21 (stereo unspecified) , please.
94.1

Recorded inhibition of Cn1c(C2CC(=O)N(CCc3ccccc3)C2)nc2ccccc21 (stereo unspecified) , please.
3.9

Recorded inhibition of Cn1ccc(N2CC(c3nc4ccccc4n3C)CC2=O)n1 (stereo unspecified) , please.
4.3

The values you see were collected from ChEMBL document CHEMBL5500393.
